I'd be grateful if you could share measured pIC50 for these entries.
Molecular target: human JAK3 (a.a. 781-1124) (Homo sapiens, UniProt P52333)
Construct: JAK3 (a.a. 781-1124); His tag (N); made in house; host or cells: insect cells (baculovirus)
Sequence (P52333 781-1124): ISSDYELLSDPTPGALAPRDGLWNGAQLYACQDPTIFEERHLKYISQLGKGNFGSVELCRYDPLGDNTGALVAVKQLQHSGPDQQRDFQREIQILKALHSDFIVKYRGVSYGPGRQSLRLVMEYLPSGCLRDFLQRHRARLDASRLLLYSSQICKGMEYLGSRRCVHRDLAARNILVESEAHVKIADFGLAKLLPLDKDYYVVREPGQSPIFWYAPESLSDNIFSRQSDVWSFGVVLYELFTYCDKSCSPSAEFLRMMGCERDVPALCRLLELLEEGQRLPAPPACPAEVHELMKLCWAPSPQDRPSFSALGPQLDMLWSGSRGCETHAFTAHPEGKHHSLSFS
Assay: In vitro JAK kinase assay (HTRF, phosphorylation of a biotinylated peptide), JAK3
Assay type: biochemical
Conditions: Table D1
pIC50: −log10 of the molar value. Structures can show the parent of a compound that is named as a salt.

Query :: Please report the recorded pIC50 for O=C(CC1CN(c2ccccn2)C1)Nc1ccc2cc1CCc1cncc(c1)Nc1ncc(Cl)c(n1)N2 [Example D153, tris(trifluoroacetate)] .
Result :: < 6.40

Query :: Please report the recorded pIC50 for Clc1cnc2nc1Nc1cccc(c1)OCc1cccc(c1)N2 [Example D7, trifluoroacetate] .
Result :: < 7.00

Query :: Please report the recorded pIC50 for CC(=O)N1CCC(CCOc2ccc3cc2CCc2cncc(c2)Nc2ncc(Cl)c(n2)N3)CC1 [Example D161, bis(trifluoroacetate)] .
Result :: < 6.40

Query :: Please report the recorded pIC50 for O=C(CC1CN(C(=O)c2nccs2)C1)Nc1ccc2cc1CCc1cncc(c1)Nc1ncc(Cl)c(n1)N2 [Example D145, bis(trifluoroacetate)] .
Result :: < 6.00

Query :: Please report the recorded pIC50 for O=C(COc1ccc2cc1CCc1cncc(c1)Nc1ncc(Cl)c(n1)N2)N1CCN(Cc2cccnc2)CC1 [Example D255, tris(trifluoroacetate)] .
Result :: < 6.40

Query :: Please report the recorded pIC50 for O=C(COc1ccc2cc1CCc1cncc(c1)Nc1ncc(Cl)c(n1)N2)N1CCN(C(=O)Nc2ccccc2)CC1 [Example D264, bis(trifluoroacetate)] .
Result :: < 6.40

Query :: Please report the recorded pIC50 for CC(=O)N1CCC(CCNc2ccc3cc2CCc2cncc(c2)Nc2ncc(Cl)c(n2)N3)CC1 [Example D219, tris(trifluoroacetate)] .
Result :: < 6.40
